Molecular target: Thromboxane-A synthase (Homo sapiens, UniProt P24557)
Sequence (P24557 whole entry): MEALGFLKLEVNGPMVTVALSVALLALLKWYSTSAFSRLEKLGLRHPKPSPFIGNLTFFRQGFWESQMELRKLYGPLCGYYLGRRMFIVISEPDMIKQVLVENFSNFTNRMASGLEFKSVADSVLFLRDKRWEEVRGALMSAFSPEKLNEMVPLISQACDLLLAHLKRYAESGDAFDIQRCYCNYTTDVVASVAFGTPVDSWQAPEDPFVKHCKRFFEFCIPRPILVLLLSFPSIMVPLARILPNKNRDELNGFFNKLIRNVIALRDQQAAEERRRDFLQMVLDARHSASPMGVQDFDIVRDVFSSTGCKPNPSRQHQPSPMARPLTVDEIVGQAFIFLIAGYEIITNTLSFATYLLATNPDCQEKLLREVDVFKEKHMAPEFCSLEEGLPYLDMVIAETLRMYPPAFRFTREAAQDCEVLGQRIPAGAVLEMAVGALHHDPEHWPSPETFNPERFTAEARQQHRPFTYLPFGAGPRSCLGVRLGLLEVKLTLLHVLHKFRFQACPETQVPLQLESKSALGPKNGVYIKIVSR
observedProperty: IC50 (nM)
Just the number please, in nM, no unit attached.

Enquiry: Answer with reported IC50 of Cc1ccc(S(=O)(=O)NCCc2ccc(/C(=C\C(=O)O)c3cccnc3)cc2)cc1
Return: 2700

Enquiry: Answer with reported IC50 of O=C(O)CC/C=C(\c1ccc(CCNS(=O)(=O)c2ccc(Cl)cc2)cc1)c1cccnc1
Return: 21

Enquiry: Answer with reported IC50 of O=C(O)CCC/C=C(/c1cccnc1)c1ccc2c(c1)CCC(NS(=O)(=O)c1ccc(Cl)cc1)C2 (centres undefined)
Return: 8

Enquiry: Answer with reported IC50 of O=C(O)c1cccc(/C=C(\c2ccc(CCNS(=O)(=O)c3ccc(Cl)cc3)cc2)c2cccnc2)c1
Return: 4

Enquiry: Answer with reported IC50 of O=S(=O)(NCCc1ccc(/C(=C\CCCc2nnn[nH]2)c2cccnc2)cc1)c1ccc(Cl)cc1
Return: 21

Enquiry: Answer with reported IC50 of CCN(CCc1ccc(/C(=C\CCCC(=O)O)c2cccnc2)cc1)S(=O)(=O)c1ccc(Cl)cc1
Return: 4

Enquiry: Answer with reported IC50 of O=C(O)CCC/C=C(\c1ccc(NS(=O)(=O)c2ccc(Cl)cc2)cc1)c1cccnc1
Return: 5

Enquiry: Answer with reported IC50 of NC(=O)CN(CCc1ccc(/C(=C\CCCC(=O)O)c2cccnc2)cc1)S(=O)(=O)c1ccc(Cl)cc1
Return: 5

Enquiry: Answer with reported IC50 of Cc1cc(C)c(S(=O)(=O)NCCc2ccc(/C(=C\CCCC(=O)O)c3cccnc3)cc2)c(C)c1
Return: 19

Enquiry: Answer with reported IC50 of O=C(O)CCC/C=C(\c1ccc(CCNS(=O)(=O)Cc2ccccc2)cc1)c1cccnc1
Return: 5

Enquiry: Answer with reported IC50 of O=C(O)CCC/C=C(/c1cccnc1)c1cccc(NS(=O)(=O)c2ccc(Cl)cc2)c1
Return: 7

Enquiry: Answer with reported IC50 of CNC(=O)CCC/C=C(\c1ccc(CCNS(=O)(=O)c2ccc(Cl)cc2)cc1)c1cccnc1
Return: 250

Enquiry: Answer with reported IC50 of NC(=O)CCC/C=C(\c1ccc(CCNS(=O)(=O)c2ccc(Cl)cc2)cc1)c1cccnc1
Return: 39

Enquiry: Answer with reported IC50 of O=C(O)CCC/C=C(\c1ccc(CCNS(=O)(=O)c2ccc(C(F)(F)F)cc2)cc1)c1cccnc1
Return: 6
